# ASSAY METHOD TEXT: Rat pharmacokinetics, iv and po dosing, whole blood and plasma
# Assay type: in vivo
# ASSAY SETUP: whole blood, iv 1 mg/kg, mean
READOUT LABEL: AUC(0-t) (ng·h/mL)
Numbers only, in ng·h/mL.

Field AUC(0-t) (entry CC(C)CC1NC(=O)[C@H](CC(C)C)N(C)C(=O)CN(C)C(=O)C([C@@H](C)O)NC(=O)C([C@H](O)[C@H](C)CCN2CCOCC2)N(C)C(=O)C(C(C)C)N(C)C(=O)C(CC(C)C)NC(=O)C(CC(C)C)N(C)C(=O)C(C(C)C)OC(=O)C(C)NC(=O)C(CC(C)C)N(C)C1=O (stereo in doubt) ) reads 827

---

# ASSAY SYSTEM: cyclophilin A (Cyp A) (Homo sapiens, UniProt P62937)
# Construct: purchased Sigma C3805
# Sequence (P62937 whole entry): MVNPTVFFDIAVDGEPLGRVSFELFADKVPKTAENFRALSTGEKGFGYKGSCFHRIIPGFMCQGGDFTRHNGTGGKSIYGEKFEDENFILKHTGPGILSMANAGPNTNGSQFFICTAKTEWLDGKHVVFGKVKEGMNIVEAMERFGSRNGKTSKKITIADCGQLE
# ASSAY METHOD TEXT: Protease-free PPIase assay, cyclophilin A
# Type: biochemical
Numbered stars: 1 amine (or outer) side, 2 acyl side, 3 side chain; on linkers, the order of the positions; unused ones are H or OH. Square brackets hold non-standard residues; d marks the D form. Peptide text beside a SMILES is read from it. X10 = Cc1cccc(/C=C/C[C@@H](C)[C@@H](O)[C@H](C(=O)[*:2])N(C)[*:1])n1; X22 = C[C@H](Cc1nc2ccccc2[nH]1)[C@@H](O)[C@H](C(=O)[*:2])N(C)[*:1]; X30 = C[C@H](CCN(C)Cc1nnn[nH]1)[C@@H](O)[C@H](C(=O)[*:2])N(C)[*:1]; X6 = C[C@H](CCN1CCOC[C@H]1C)[C@@H](O)[C@H](C(=O)[*:2])N(C)[*:1]; X23 = COC1CN(CC[C@@H](C)[C@@H](O)[C@H](C(=O)[*:2])N(C)[*:1])C1; d(aThr) = C[C@@H](O)[C@@H](N)C(=O)O; NMeL = CN[C@@H](CC(C)C)C(=O)O; dNMeL = CN[C@H](CC(C)C)C(=O)O; dNMeV = CN[C@@H](C(=O)O)C(C)C; Hiv = CC(C)[C@H](O)C(=O)O; Sar = CNCC(=O)O
READOUT LABEL: Ki

{"COMPOUND": "CC(C)C[C@@H]1C(=O)N[C@H](CC(C)C)C(=O)N(C)[C@H](C(C)C)C(=O)N(C)[C@H]([C@H](O)[C@H](C)Cc2nc3ccccc3[nH]2)C(=O)N[C@H]([C@@H](C)O)C(=O)N(C)CC(=O)N(C)[C@@H](CC(C)C)C(=O)N[C@H](CC(C)C)C(=O)N(C)[C@H](CC(C)C)C(=O)N[C@H](C)C(=O)O[C@@H](C(C)C)C(=O)N1C [Example 33] (cyclo([Hiv][dNMeL][dL][dNMeV][X22][d(aThr)][Sar][NMeL][dL][dNMeL][dA]))", "ASSAY SYSTEM": "cyclophilin A (Cyp A) (Homo sapiens, UniProt P62937)", "Ki": "1 to 25 nM"}

Need Ki for each of these compounds.
1. Cc1cccc(/C=C/C[C@@H](C)[C@@H](O)[C@@H]2C(=O)N[C@H]([C@@H](C)O)C(=O)N(C)CC(=O)N(C)[C@@H](CC(C)C)C(=O)N[C@H](CC(C)C)C(=O)N(C)[C@H](CC(C)C)C(=O)N[C@H](C)C(=O)O[C@@H](C(C)C)C(=O)N(C)[C@H](CC(C)C)C(=O)N[C@H](CC(C)C)C(=O)N(C)[C@H](C(C)C)C(=O)N2C)n1 [Example 14] (cyclo([Hiv][dNMeL][dL][dNMeV][X10][d(aThr)][Sar][NMeL][dL][dNMeL][dA]))
2. COC1CN(CC[C@@H](C)[C@@H](O)[C@@H]2C(=O)N[C@H]([C@@H](C)O)C(=O)N(C)CC(=O)N(C)[C@@H](CC(C)C)C(=O)N[C@H](CC(C)C)C(=O)N(C)[C@H](CC(C)C)C(=O)N[C@H](C)C(=O)O[C@@H](C(C)C)C(=O)N(C)[C@H](CC(C)C)C(=O)N[C@H](CC(C)C)C(=O)N(C)[C@H](C(C)C)C(=O)N2C)C1 [Example 11] (cyclo([Hiv][dNMeL][dL][dNMeV][X23][d(aThr)][Sar][NMeL][dL][dNMeL][dA]))

Solution:
1 to 25 nM
1 to 25 nM

Answer for every listed entry: what is its Ki? The entries follow.
1. CC(C)C[C@@H]1C(=O)N[C@H](CC(C)C)C(=O)N(C)[C@H](C(C)C)C(=O)N(C)[C@H]([C@H](O)[C@H](C)CCN(C)Cc2nnn[nH]2)C(=O)N[C@H]([C@@H](C)O)C(=O)N(C)CC(=O)N(C)[C@@H](CC(C)C)C(=O)N[C@H](CC(C)C)C(=O)N(C)[C@H](CC(C)C)C(=O)N[C@H](C)C(=O)O[C@@H](C(C)C)C(=O)N1C [Example 6] (cyclo([Hiv][dNMeL][dL][dNMeV][X30][d(aThr)][Sar][NMeL][dL][dNMeL][dA]))
2. CC(C)C[C@@H]1C(=O)N[C@H](CC(C)C)C(=O)N(C)[C@H](C(C)C)C(=O)N(C)[C@H]([C@H](O)[C@H](C)CCN2CCOC[C@H]2C)C(=O)N[C@H]([C@@H](C)O)C(=O)N(C)CC(=O)N(C)[C@@H](CC(C)C)C(=O)N[C@H](CC(C)C)C(=O)N(C)[C@H](CC(C)C)C(=O)N[C@H](C)C(=O)O[C@@H](C(C)C)C(=O)N1C [Example 29] (cyclo([Hiv][dNMeL][dL][dNMeV][X6][d(aThr)][Sar][NMeL][dL][dNMeL][dA]))

Solution:
1: 1 to 25 nM; 2: 25 to 100 nM
